Target or test system: PI3Kδ (Homo sapiens)
Sequence (O00329 whole entry, species assumed): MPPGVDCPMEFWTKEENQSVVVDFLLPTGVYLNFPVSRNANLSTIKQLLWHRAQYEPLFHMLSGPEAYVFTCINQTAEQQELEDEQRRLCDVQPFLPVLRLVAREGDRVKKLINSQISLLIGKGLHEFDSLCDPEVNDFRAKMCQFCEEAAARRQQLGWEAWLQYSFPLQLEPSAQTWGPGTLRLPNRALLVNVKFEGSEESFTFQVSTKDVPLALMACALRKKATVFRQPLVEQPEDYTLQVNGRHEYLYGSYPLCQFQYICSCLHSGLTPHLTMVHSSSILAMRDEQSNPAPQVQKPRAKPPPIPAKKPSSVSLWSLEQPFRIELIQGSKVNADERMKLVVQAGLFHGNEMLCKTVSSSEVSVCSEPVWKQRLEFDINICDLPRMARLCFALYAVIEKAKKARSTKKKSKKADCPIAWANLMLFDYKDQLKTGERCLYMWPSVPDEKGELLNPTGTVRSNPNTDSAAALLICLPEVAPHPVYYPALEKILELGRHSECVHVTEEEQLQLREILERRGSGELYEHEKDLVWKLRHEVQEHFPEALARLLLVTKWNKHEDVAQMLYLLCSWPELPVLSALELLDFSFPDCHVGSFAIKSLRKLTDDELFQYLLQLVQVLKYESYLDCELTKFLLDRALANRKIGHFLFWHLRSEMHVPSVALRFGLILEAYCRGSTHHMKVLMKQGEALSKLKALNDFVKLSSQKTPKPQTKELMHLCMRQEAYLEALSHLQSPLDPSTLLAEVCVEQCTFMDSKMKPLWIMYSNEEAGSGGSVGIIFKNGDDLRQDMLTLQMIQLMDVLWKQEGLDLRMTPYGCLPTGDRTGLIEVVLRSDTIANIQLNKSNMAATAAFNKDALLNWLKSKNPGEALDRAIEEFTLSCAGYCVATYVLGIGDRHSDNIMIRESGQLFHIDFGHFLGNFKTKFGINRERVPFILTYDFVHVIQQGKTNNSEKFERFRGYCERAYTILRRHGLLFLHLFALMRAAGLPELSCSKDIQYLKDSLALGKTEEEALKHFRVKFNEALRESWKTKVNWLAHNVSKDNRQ
Sequence (P27986 whole entry partner, species assumed): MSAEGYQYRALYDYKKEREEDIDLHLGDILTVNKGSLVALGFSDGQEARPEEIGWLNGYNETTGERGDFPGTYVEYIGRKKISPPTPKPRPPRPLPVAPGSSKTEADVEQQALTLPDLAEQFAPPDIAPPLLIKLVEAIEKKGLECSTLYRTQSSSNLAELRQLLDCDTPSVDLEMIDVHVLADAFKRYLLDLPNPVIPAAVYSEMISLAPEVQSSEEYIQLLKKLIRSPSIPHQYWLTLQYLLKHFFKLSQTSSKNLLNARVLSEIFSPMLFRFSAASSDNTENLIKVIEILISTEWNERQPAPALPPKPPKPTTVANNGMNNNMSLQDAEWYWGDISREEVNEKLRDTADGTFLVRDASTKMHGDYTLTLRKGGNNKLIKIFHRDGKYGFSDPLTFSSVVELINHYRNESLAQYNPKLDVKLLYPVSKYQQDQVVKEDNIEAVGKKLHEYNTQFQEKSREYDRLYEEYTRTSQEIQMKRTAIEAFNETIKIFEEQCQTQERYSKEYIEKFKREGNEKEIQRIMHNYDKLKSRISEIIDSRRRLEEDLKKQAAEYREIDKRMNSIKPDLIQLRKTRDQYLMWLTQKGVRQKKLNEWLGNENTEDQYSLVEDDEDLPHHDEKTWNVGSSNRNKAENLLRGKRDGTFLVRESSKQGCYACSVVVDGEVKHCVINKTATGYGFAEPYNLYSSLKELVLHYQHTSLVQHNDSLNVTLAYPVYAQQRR
Test method notes: In vitro inhibition of PI3Kδ
Type: biochemical
Reported conditions: Table 10B, inhibitory activity, unit inferred; read-out: PI3Kδ
Value type: pIC50
Give only the number. pIC50 is defined as minus log10 of concentration in molar units.

CN(C)C1CCN(C(=O)c2ccc(NC(=O)Nc3ccc(-c4nc(N5CCOCC5)nc(N5CCN(C(=O)CCOCCOCCOCCONC(=O)c6ccc(F)c(F)c6Nc6ccc(I)cc6F)CC5)n4)cc3)cc2)CC1 ... 7.26

Now for the molecule whose pIC50 we want.
Q: Data request, read-out pIC50, for `O=C(NOCCOCCOCCOCCN1CCN(c2nc(N3CCOCC3)nc(-n3c(C(F)F)nc4ccccc43)n2)CC1)c1ccc(F)c(F)c1Nc1ccc(I)cc1F`
A: 6.03
